target: Cannabinoid receptor 1 (Homo sapiens, UniProt P21554); assay: Agonist activity at human CB1 receptor expressed in CHO cells co-expressing Galpha16 assessed as increase in calcium mobilization at 10 uM measured at 1 sec interval for 90 secs by calcium-5 dye based FLIPR assay relative to CP55,940; format: cell-based; conditions: 0.025 h
Sequence (P21554 whole entry): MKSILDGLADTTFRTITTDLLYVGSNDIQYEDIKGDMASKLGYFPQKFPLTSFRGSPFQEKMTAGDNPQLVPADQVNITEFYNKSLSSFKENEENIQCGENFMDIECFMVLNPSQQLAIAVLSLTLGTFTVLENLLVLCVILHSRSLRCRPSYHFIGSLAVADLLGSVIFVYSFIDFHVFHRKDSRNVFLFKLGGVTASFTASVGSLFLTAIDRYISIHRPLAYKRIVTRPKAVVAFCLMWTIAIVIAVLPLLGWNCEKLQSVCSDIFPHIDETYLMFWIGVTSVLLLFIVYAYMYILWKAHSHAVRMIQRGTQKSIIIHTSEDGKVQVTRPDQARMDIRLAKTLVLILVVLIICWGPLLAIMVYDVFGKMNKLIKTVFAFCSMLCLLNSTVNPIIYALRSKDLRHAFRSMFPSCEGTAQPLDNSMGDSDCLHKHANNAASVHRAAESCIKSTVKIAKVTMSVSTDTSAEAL
value_kind: Emax at 10 µM (%)
// return numeric value only (unit: %, not printed)

- CC(C)(C)c1ccc(-c2cccc(NC(=O)Nc3ccc(Cl)cc3)c2)cc1: 4

Report Emax at 10 µM, nothing else, for this compound: "O=C(Nc1ccc(Cl)cc1)Nc1cccc(-c2ccc(F)cc2F)c1"
9

Entry "COc1cccc(-c2cccc(NC(=O)Nc3ccc(Cl)cc3)c2)n1" needs its Emax at 10 µM filled in; supply it.
2

Fill in Emax at 10 µM for record "O=C(Nc1ccc(Cl)cc1)Nc1cccc(-c2ccc3ccccc3n2)c1"
5

Let me know recorded Emax at 10 µM for "O=C(Nc1ccc(Cl)cc1)Nc1cccc(-c2cccc(N3CCCC3)n2)c1" , thanks.
28

Identify measured Emax at 10 µM corresponding to "O=C(Nc1ccc(Cl)cc1)Nc1cccc(-c2ccc(Cl)cc2)c1"
21

Please list Emax at 10 µM recorded for the compound "O=C(Nc1ccc(Cl)cc1)Nc1cccc(-c2cnc3ccccc3c2)c1"
3

Indicate its recorded Emax at 10 µM; the compound in question is "O=C(Nc1ccc(Cl)cc1)Nc1cccc(-c2ccccn2)c1"
9

Return Emax at 10 µM (reported value) for this compound: "O=C(Nc1ccc(Cl)cc1)Nc1cccc(-c2ccc3occc3c2)c1"
1

Read the entry "O=C(Nc1ccc(Cl)cc1)Nc1cccc(-c2ccc(-c3ccccc3)cc2)c1" and write its reported Emax at 10 µM.
0

Quick one: give measured Emax at 10 µM for "O=C(Nc1ccc(Cl)cc1)Nc1cccc(-c2c(Cl)cccc2Cl)c1"
17

Supply reported Emax at 10 µM belonging to this compound: "O=C(Nc1ccc(Cl)cc1)Nc1cccc(-c2ccc3c(c2)OCO3)c1"
10

Name the recorded Emax at 10 µM of the item "O=C(Nc1ccc(Cl)cc1)Nc1cccc(-c2ccc(C(=O)c3ccccc3)cc2)c1" in your answer.
13

Note down Emax at 10 µM recorded for "O=C(Nc1ccc(Cl)cc1)Nc1cccc(-c2ccncc2)c1"
15

Output measured Emax at 10 µM for this item: "COc1cccc(-c2cccc(NC(=O)Nc3ccc(Cl)cc3)c2)c1"
13

Give the value of Emax at 10 µM reported for the following: "O=C(Nc1ccc(Cl)cc1)Nc1cccc(-c2ccccc2)c1"
5

Tell me its Emax at 10 µM given "O=C(Nc1ccc(Cl)cc1)Nc1cccc(-c2cccc(-c3ccccc3)c2)c1" as the entry.
1
